# target-of-assay: menin protein (Homo sapiens (Human), UniProt O00255)
# Sequence (O00255 whole entry): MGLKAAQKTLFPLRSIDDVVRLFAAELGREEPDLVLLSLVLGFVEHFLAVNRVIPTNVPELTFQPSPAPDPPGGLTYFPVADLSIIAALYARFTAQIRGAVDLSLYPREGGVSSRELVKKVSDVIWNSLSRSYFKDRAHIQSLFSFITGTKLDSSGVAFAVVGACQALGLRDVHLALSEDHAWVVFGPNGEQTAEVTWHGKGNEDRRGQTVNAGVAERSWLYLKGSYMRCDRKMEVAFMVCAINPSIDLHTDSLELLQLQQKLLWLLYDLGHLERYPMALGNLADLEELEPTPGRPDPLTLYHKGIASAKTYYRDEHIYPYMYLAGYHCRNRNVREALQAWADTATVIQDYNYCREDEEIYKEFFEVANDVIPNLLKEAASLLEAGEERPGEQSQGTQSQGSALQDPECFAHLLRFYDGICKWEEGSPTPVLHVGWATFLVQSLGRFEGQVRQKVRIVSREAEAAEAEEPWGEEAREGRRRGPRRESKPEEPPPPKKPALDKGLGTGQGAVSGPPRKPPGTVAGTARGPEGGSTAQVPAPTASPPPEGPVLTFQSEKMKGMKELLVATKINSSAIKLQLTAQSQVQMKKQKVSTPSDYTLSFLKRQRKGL
# experimental-details: biochemical
# Type: binding
# condition-context: FP competitive binding; menin protein 4 nM, FAM-MM2 probe 2 nM; read-out: Menin Binding Affinity IC50
Here the recorded IC50 is given for each entry.

[
  {
    "compound": "CS(=O)(=O)N[C@@H]1CCC[C@H]1C(C#N)(c1ccccc1)C1CCN(CC2CN(c3ccc(S(=O)(=O)c4ccncc4)cc3)C2)CC1 (mixture of isomers)",
    "IC50": "4.7 µM"
  },
  {
    "compound": "CCN1Cc2ccccc2C(C2CCCC2)(C2CCN(CC3CN(c4ccc(S(=O)(=O)CC5CC5)cc4)C3)CC2)C1 (centres unmarked)",
    "IC50": "0.028 µM"
  },
  {
    "compound": "C[C@H](NC(=O)O[C@H]1CCC[C@@H]1[C@](C#N)(c1ccccc1)C1CCN(CC2CN(c3ccc(S(=O)(=O)c4ccncc4)cc3)C2)CC1)c1ccccc1",
    "IC50": "11.6 µM"
  },
  {
    "compound": "CC(=O)O[C@@H]1CCC[C@H]1C(C#N)(c1cccc(F)c1)C1CCN(CC2CN(c3ccc(S(=O)(=O)c4ccccc4)cc3)C2)CC1 (mixture of isomers)",
    "IC50": "13.8 µM"
  },
  {
    "compound": "COC(=O)N[C@H]1CCC[C@@H]1C(C#N)(c1ccccc1)C1CCN(CC2CN(c3ccc(S(=O)(=O)c4ccncc4)cc3)C2)CC1 (mixture of isomers)",
    "IC50": "0.011 µM"
  },
  {
    "compound": "CC(C)(C)S(=O)(=O)c1ccc(N2CC(CN3CCC(C4(C5CCCC5)NCCc5ccccc54)CC3)C2)cc1 (centres unmarked)",
    "IC50": "0.122 µM"
  },
  {
    "compound": "N#Cc1cc2cc(CN3CCC(CC4(C5CCCC5)NCCc5ccccc54)CC3)ccc2[nH]1 (centres unmarked)",
    "IC50": "41.6 µM"
  },
  {
    "compound": "CNC(=O)O[C@@H]1CCC[C@H]1C(C#N)(c1ccccc1)C1CCN(CC2CN(c3ccc(C#N)cc3)C2)CC1 (mixture of isomers)",
    "IC50": "3.1 µM"
  },
  {
    "compound": "O=S(=O)(c1ccncc1)c1ccc(N2CC(CN3CCC(C4(C5CCCC5)CN(C5CCC5)Cc5ccccc54)CC3)C2)cc1 (centres unmarked)",
    "IC50": "0.009 µM"
  },
  {
    "compound": "O=C(CN1CCC(C2(C3CCCC3)NCCc3ccccc32)CC1)N1CCCC1 (centres unmarked)",
    "IC50": "3.1 µM"
  },
  {
    "compound": "O=S(=O)(c1ccc(N2CC(CN3CCC(C4(C5CCCC5)NCCc5ccccc54)CC3)C2)cc1)C1CCOCC1 (centres unmarked)",
    "IC50": "0.049 µM"
  },
  {
    "compound": "CCN1Cc2ccccc2C(C2CCCC2)(C2CCN(CC3(F)CN(c4ccc(S(=O)(=O)C5CC5)cc4)C3)CC2)C1 (centres unmarked)",
    "IC50": "0.028 µM"
  },
  {
    "compound": "O=S(=O)(c1ccccc1)c1ccc(N2CC(CN3CCC(C(CN4CCCC4)(C4=CCCC4)c4ccccc4)CC3)C2)cc1 (centres unmarked)",
    "IC50": "0.045 µM"
  },
  {
    "compound": "CC(=O)O[C@H]1CCC[C@@H]1C1(C2CCN(CC3CN(c4ccc(S(=O)(=O)c5ccnc(C)c5)cc4)C3)CC2)CN(C)Cc2ccccc21 (mixture of isomers) [compound 202]",
    "IC50": "0.113 µM"
  },
  {
    "compound": "N#Cc1ccc(N2CC(CN3CCC(C4(C5CCCC5)CNCc5ccccc54)CC3)C2)cc1 (centres unmarked)",
    "IC50": "0.026 µM"
  },
  {
    "compound": "CNC(=O)O[C@@H]1CCC[C@H]1C(C#N)(c1ccccc1)C1CCN(C2CCN(c3ccc(S(=O)(=O)c4ccccc4)cc3)CC2)CC1 (mixture of isomers)",
    "IC50": "6.2 µM"
  },
  {
    "compound": "CC(=O)N[C@@H]1CCC[C@H]1C(C#N)(c1ccccc1)C1CCN(CC2CN(c3ccc(S(=O)(=O)C4CC4)cc3)C2)CC1 (mixture of isomers)",
    "IC50": "3.3 µM"
  },
  {
    "compound": "CC(=O)N[C@@H]1CCC[C@H]1C(C#N)(c1ccccc1)C1CCN(CC2CN(c3ccc(S(=O)(=O)c4ccncc4)cc3)C2)CC1 (mixture of isomers)",
    "IC50": "0.555 µM"
  },
  {
    "compound": "CC(=O)O[C@@H]1CCC[C@H]1C(C#N)(c1ccccc1)C1CCN(CC2CN(c3ccc(C(=O)O)cc3)C2)CC1 (mixture of isomers)",
    "IC50": "6.5 µM"
  },
  {
    "compound": "COC(=O)N[C@H]1CCC[C@@H]1C(C#N)(c1ccccc1)C1CCN(CC2CN(c3ccc(S(=O)(=O)C4CC5CCC4C5)cc3)C2)CC1 (mixture of isomers)",
    "IC50": "0.012 µM"
  },
  {
    "compound": "O=S(=O)(c1ccncc1)c1ccc(N2CC(CN3CCC(C4(C5CCCC5)CN(CC5CC5)Cc5ccccc54)CC3)C2)cc1 (centres unmarked)",
    "IC50": "0.007 µM"
  },
  {
    "compound": "CC(C)C(=O)O[C@H]1CCC[C@@H]1C(C#N)(c1ccccc1)C1CCN(CC2CN(c3ccc(S(=O)(=O)c4ccncc4)cc3)C2)CC1 (mixture of isomers)",
    "IC50": "0.237 µM"
  },
  {
    "compound": "O=C(CN1CCC(C2(C3CCCC3)NCCc3ccccc32)CC1)N1CCc2ccccc2C1 (centres unmarked)",
    "IC50": "8.2 µM"
  },
  {
    "compound": "N#Cc1ccc(OCCCN2CCC(C3(C4CCCCC4)NCCc4ccccc43)CC2)cc1 (centres unmarked)",
    "IC50": "0.3 µM"
  },
  {
    "compound": "N#Cc1ccc(OCCCN2CCC(C3(C4CCCC4)CNC(=O)c4ccccc43)CC2)cc1 (centres unmarked)",
    "IC50": "1.1 µM"
  },
  {
    "compound": "COC(=O)N[C@H]1CCC[C@@H]1C(C#N)(c1ccccc1)C1CCN(CC2CN(c3ccc(S(=O)(=O)c4cnn(C)c4)cc3)C2)CC1 (mixture of isomers)",
    "IC50": "0.015 µM"
  }
]
